Taken from patent US9028845B2.

tested on: mice; experiment: Serum cytokines (IL-12 p40, IL-6, TNF-α) after subcutaneous injection in mice; assay type: in vivo; conditions: 20 ug subcutaneous, blood 2 hours later
Strand notation (5' to 3'): a small letter for the sugar, then the base; units joined by * are phosphorothioate-linked, units joined directly phosphodiester-linked; [ ] holds rarer units or linkages, { } end groups; capitals alone tell only the bases. d = 2'-deoxy (DNA)
parameter: induction of serum IL-12 p40, IL-6 and TNF-α, in words

>  <substance>
5′-AACGTT-3′ [Compound P-11]

>  <experimental.target>
mice

>  <endpoint.value>
inactive

$$$$
>  <substance>
5′-TCGTCGA-3′ [Compound P-1, reference compound]

>  <experimental.target>
mice

>  <endpoint.value>
inactive

$$$$
>  <substance>
5′-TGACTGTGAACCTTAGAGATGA-3′ (SEQ ID NO: 3) (dT*dG*dA*dC*dT*dG*dT*dG*dA*dA*dC*dC*dT*dT*dA*dG*dA*dG*dA*dT*dG*dA) [Compound P-7, negative control, reference compound]

>  <experimental.target>
mice

>  <endpoint.value>
inactive

$$$$

----------
tested on: human PBMCs; assay: Human PBMC cytokine response assay (IFN-γ and IFN-α in cell-free medium by ELISA), with or without cPLGA; type: cell-based; details: donor 28067; 20 ug/ml, 24 h; + PLGA = premixed with 100 μg/ml cPLGA
Strand notation (5' to 3'): a small letter for the sugar, then the base; units joined by * are phosphorothioate-linked, units joined directly phosphodiester-linked; [ ] holds rarer units or linkages, { } end groups; capitals alone tell only the bases. d = 2'-deoxy (DNA)
# reported IFN-α (pg/ml) 28067; entries follow
parameter: IFN-α (pg/ml) 28067 (pg/mL)

>  <substance>
5′-TCGTCG-3′-TEG-5′-ACGTTCG-3′-TEG-5′-AGATGAT-3′ [Compound C-18]

>  <endpoint.value>
16

$$$$
>  <substance>
5′-TCGTCGA-3′-HEG-5′-ACGTTCG-3′-HEG-5′-AGATGAT-3′ [Compound C-8]

>  <endpoint.value>
96

$$$$
>  <substance>
5′-TCGTCG-3′-C12-5′-ACGTTCG-3′-C12-5′-AGATGAT-3′ [Compound C-19]

>  <endpoint.value>
0

$$$$
>  <substance>
5′-TGCTGC-3′-HEG-5′-AGCTTGC-3′-HEG-5′-AGATGAT-3′ [Compound M-1, reference compound]

>  <endpoint.value>
3

$$$$
>  <substance>
5′-ACGTTCG-3′ [Compound P-3, reference compound]

>  <endpoint.value>
5

$$$$
>  <substance>
5′-ACGTTCG-3′-HEG-5′-ACGTTCG-3′-HEG-5′-AGATGAT-3′ [Compound C-24]

>  <endpoint.value>
8

$$$$
>  <substance>
5′-TCGTCG-3′-HME-5′-ACGTTCG-3′-HME-5′-AGATGAT-3′ [Compound C-25]

>  <endpoint.value>
22

$$$$
>  <substance>
5′-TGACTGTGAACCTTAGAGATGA-3′ (SEQ ID NO: 3) (dT*dG*dA*dC*dT*dG*dT*dG*dA*dA*dC*dC*dT*dT*dA*dG*dA*dG*dA*dT*dG*dA) [Compound P-7, negative control, reference compound]

>  <endpoint.value>
0

$$$$
>  <substance>
5′-TCGTCGA-3′-HEG-5′-TCGTCGA-3′-HEG-5′-TCGTCGA-3′ [Compound C-21]

>  <endpoint.value>
183

$$$$
>  <substance>
(5′-TCGTCGA-3′)2-glycerol-5′-TCGTCGA-3′ [Compound C-28]

>  <endpoint.value>
29

$$$$
>  <substance>
(5′-TCGTCGA-3′)2-glycerol-5′-AACGTTC-3′ [Compound C-27]

>  <endpoint.value>
24

$$$$
>  <substance>
5′-TCGTCG-3′ [Compound P-2, reference compound]

>  <endpoint.value>
0

$$$$
>  <substance>
5′-TCGTCG-3′-abasic-5′-ACGTTCG-3′-abasic-5′-AGATGAT-3′ [Compound C-20]

>  <endpoint.value>
13

$$$$
>  <substance>
5′-TCGTCG-3′-HEG-5′-ACGTTCG-3′-HEG-5′-AGATGAT-3′ [Compound C-10]

>  <endpoint.value>
107

$$$$
>  <substance>
5′-TCGTCG-3′-HEG-5′-AACGTT-3′-HEG-5′-AGATGAT-3′ [Compound C-23]

>  <endpoint.value>
19

$$$$
>  <substance>
5′-TCGTCGA-3′- C3-5′-ACGTTCG-3′-C3-5′-AGATGAT-3′ [Compound C-9]

>  <endpoint.value>
22

$$$$
>  <substance>
5′-TCGTCG-3′-C4-5′-ACGTTCG-3′-C4-5′-AGATGAT-3′ [Compound C-17]

>  <endpoint.value>
22

$$$$
>  <substance>
5′-AGATGAT-3′ [Compound P-4, reference compound]

>  <endpoint.value>
9

$$$$
